- Tested on: ATP;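 note: ATP exposure 15 min at 22 °C before imaging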
- assay.explanation: switch fluorescence ratio, 500 uM ATP over buffer (Cy3 cluster intensity, sum of 5 cycles each) (fold (ratio)); higher = stronger signal-on switching upon ATP binding; sequences stand for … in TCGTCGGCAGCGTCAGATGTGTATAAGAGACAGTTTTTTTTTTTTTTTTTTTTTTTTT…TC
- details: aptamer strand: ATP DNA aptamer (quencher-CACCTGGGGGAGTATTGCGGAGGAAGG + anchor), 100 nM annealed; ATP concentration: 500 uM
assay.readout: switch fluorescence ratio

[[record]]
construct_sequence = "GGGGAATTGT"
assay_readout = "switch fluorescence ratio"
numeric_readout = 1.02

[[record]]
construct_sequence = "GGGAGCTAGG"
assay_readout = "switch fluorescence ratio"
numeric_readout = 0.971

[[record]]
construct_sequence = "CAGAAGGGCC"
assay_readout = "switch fluorescence ratio"
numeric_readout = 0.997

[[record]]
construct_sequence = "GTTTGTAGGC"
assay_readout = "switch fluorescence ratio"
numeric_readout = 0.964

[[record]]
construct_sequence = "GGGGTTCGGC"
assay_readout = "switch fluorescence ratio"
numeric_readout = 1.06

[[record]]
construct_sequence = "ATGTAATATA"
assay_readout = "switch fluorescence ratio"
numeric_readout = 1.02

[[record]]
construct_sequence = "ACAAGTAAGC"
assay_readout = "switch fluorescence ratio"
numeric_readout = 1.05

[[record]]
construct_sequence = "ATGGAGGGGT"
assay_readout = "switch fluorescence ratio"
numeric_readout = 1

[[record]]
construct_sequence = "GTTGCTTAGT"
assay_readout = "switch fluorescence ratio"
numeric_readout = 0.972

[[record]]
construct_sequence = "GGGGAGGTCG"
assay_readout = "switch fluorescence ratio"
numeric_readout = 1.03

[[record]]
construct_sequence = "GGTGGGTGCA"
assay_readout = "switch fluorescence ratio"
numeric_readout = 0.985

[[record]]
construct_sequence = "TTTATCTTTT"
assay_readout = "switch fluorescence ratio"
numeric_readout = 1

[[record]]
construct_sequence = "TGCGTTTGGG"
assay_readout = "switch fluorescence ratio"
numeric_readout = 1.05

[[record]]
construct_sequence = "GTTTTTTAAC"
assay_readout = "switch fluorescence ratio"
numeric_readout = 1.01

[[record]]
construct_sequence = "GTTTAAGTTT"
assay_readout = "switch fluorescence ratio"
numeric_readout = 0.996


---

- Test system: ATP;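 note: ATP exposure 15 min at 22 °C before imaging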
- assay.explanation: switch fluorescence ratio, 500 uM ATP over buffer (Cy3 cluster intensity, sum of 5 cycles each) (fold (ratio)); higher = stronger signal-on switching upon ATP binding; sequences stand for … in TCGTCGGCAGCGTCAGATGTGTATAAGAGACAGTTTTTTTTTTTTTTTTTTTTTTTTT…TC
- details: aptamer strand: ATP DNA aptamer (quencher-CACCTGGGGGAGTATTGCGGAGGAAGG + anchor), 100 nM annealed; ATP concentration: 500 uM
Recorded switch fluorescence ratio values for a group of sequences are listed next.
assay.readout: switch fluorescence ratio

[[record]]
construct_sequence = "GCACGGGGAA"
numeric_readout = 1.02

[[record]]
construct_sequence = "TAAGAGCTGA"
numeric_readout = 0.985

[[record]]
construct_sequence = "GAAGGTTATA"
numeric_readout = 1

[[record]]
construct_sequence = "ATTCCCAATT"
numeric_readout = 1.04

[[record]]
construct_sequence = "GTTTTTAAGT"
numeric_readout = 1.03

[[record]]
construct_sequence = "GGGTTGAACC"
numeric_readout = 0.994

[[record]]
construct_sequence = "GGTTATAGAC"
numeric_readout = 0.994

[[record]]
construct_sequence = "TCAGCGACTT"
numeric_readout = 1.01

[[record]]
construct_sequence = "TAAGGAATTG"
numeric_readout = 1.01

[[record]]
construct_sequence = "GGCGCGAGAG"
numeric_readout = 1.03

[[record]]
construct_sequence = "TAGTTTTATA"
numeric_readout = 1.02

[[record]]
construct_sequence = "CGGGGCGGGA"
numeric_readout = 1.01

[[record]]
construct_sequence = "GTGATACACG"
numeric_readout = 1

[[record]]
construct_sequence = "CAGGGAATAA"
numeric_readout = 0.997

[[record]]
construct_sequence = "TCGTGGCGCT"
numeric_readout = 0.995

[[record]]
construct_sequence = "ATATATGCAG"
numeric_readout = 0.986

[[record]]
construct_sequence = "ATCTTCTAGT"
numeric_readout = 0.953

[[record]]
construct_sequence = "GGGTGTAGTC"
numeric_readout = 1.02

[[record]]
construct_sequence = "TTTTTCTGGG"
numeric_readout = 0.977

[[record]]
construct_sequence = "GTTCGTTGAC"
numeric_readout = 0.986

[[record]]
construct_sequence = "GATAGAGATT"
numeric_readout = 0.996

[[record]]
construct_sequence = "TTCCATCACA"
numeric_readout = 1.01

[[record]]
construct_sequence = "CGGGAAATAG"
numeric_readout = 1.06

[[record]]
construct_sequence = "GGTGATGTTG"
numeric_readout = 0.961

[[record]]
construct_sequence = "GGTTTGGTCA"
numeric_readout = 1

[[record]]
construct_sequence = "TTTAAGTGGG"
numeric_readout = 1.04

[[record]]
construct_sequence = "ACGGGCACTT"
numeric_readout = 1.12

[[record]]
construct_sequence = "CGATTGGAGT"
numeric_readout = 0.986

[[record]]
construct_sequence = "GGCTACGGCG"
numeric_readout = 0.993

[[record]]
construct_sequence = "CAACTGGCGG"
numeric_readout = 0.99

[[record]]
construct_sequence = "AACCTATTAT"
numeric_readout = 0.998

